systemTested: T1, 4H816-AA
T1 chain: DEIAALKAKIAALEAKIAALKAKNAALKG
methodSummary: two-hybrid library CCmax;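 further: natural log of median RNA to DNA barcode read ratio; higher means stronger binding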
conditionSet: mean of both orientations
propertyMeasured: interaction score

Example entries and their recorded answers appear below.
{"binder": "DKIAALKAKNAALEAKIAALKAEIAALEG [4H2985-AA]", "interaction score": -0.519}
{"binder": "DKNAALKAKIAALKAKIAALEAENAALKG [4H3940-AA]", "interaction score": -0.0778}

P: DEIAALEAKNAALEAEIAALEAKIAALKG [4H390-AA]
Q: DEIAALEAEIAALKAKNAALKAEIAALEG [4H121-AA]
Input: Could you tell me which of P and Q has the lower interaction score reading? Lab note: record the label of whichever item you select.
Output: Q
